# Tested on: HCC 2998
# protocol_description: NCI tumour cell line growth inhibition, 48 h
Calls of active or inactive are those of the source. Rule as the data show it: active = GI50 up to about 1.1 µM and inactive = higher.
Pick one and only one: active, inactive

Field: example entries. Status: answers known.
> print(dat)
                                   compound     class
1                  CC(=O)Oc1ccc(O)c2c1CCCC2  inactive
2  N#CC(/C(CCCC(=O)Nc1cccc([N+](=O)[O-])c1)=N/NC(=O)c1cc2ccccc2cc1O)c1ccccc1 (configuration not stated)  inactive
3  CCN(CC)CCNC(=O)c1cn2c(ccc3sc4ccccc4c(=O)c32)n1  inactive

For this compound, state the assay outcome: COC1=C(C)C(=O)C2=C(C1=O)[C@@H]1[C@@H]3Cc4c(OC(=O)CO)c(C)c(OC)c(O)c4[C@H](CNC(=O)C(C)=O)N3[C@@H](C#N)[C@H](C2)N1C
active
